Where do these numbers come from? They come from ChEMBL document CHEMBL3739310.

assay.name: Growth inhibition of Nf1 defective and Trp53 defective mouse K5001 cells after 2 days by XTT assay
measurement.setup: K5001, 2 days
readout.label: pIC50
Hey, just a heads up that pIC50 is the negative log base 10 of the concentration in molar.

[
  {
    "compound": "COc1cc2c(cc1OC)-c1c(oc3c4c(ccc3c1=O)OC(C)(C)C=C4)CO2 [DEHYDRODEGUELIN]",
    "pIC50": 5.92
  }
]

Let us examine a further case.
Kindly note the recorded pIC50 for `COc1cc2c(cc1OC)[C@@H]1C(=O)c3ccc4c(c3O[C@@H]1CO2)C=CC(C)(C)O4` , which is 5.92
